The measured values listed here are drawn from the supplement of paper PMC10567573.

B1: ETS1 (parent)
chain: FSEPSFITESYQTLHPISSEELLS

variants of: B1; assay: protein stability index of a GFP-peptide fusion (GPS, HEK-293T) (PSI 1-6); higher = more stable; details: c terminus: a fixed tail appended;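 also: lentivirally expressed fusions sorted by FACS into six bins by GFP to DsRed ratio, PSI derived from sequencing read proportions per bin multiplied by bin number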
Values of protein stability index greater than or equal to 2 map to T; values below map to F.

Exercise: Is protein stability index at least 2? Consider FSEPSFITESSQTLHPISSEELLS [Y11S]
Solution: T

Exercise: Now consider FSEPSFITESYQTLHPKSSEELLS [I17K] .
Solution: T

Exercise: Now consider FSEPSFITESYQTMHPISSEELLS [L14M] .
Solution: F

Exercise: Now consider ASEPSFITESYQTLHPISSEELLS [F1A] .
Solution: T
